Values were extracted from patent US20190309059A1.

Please respond with reported mean fluorescence intensity for every item in the list.
target: his-labeled human IL-13 (immunogen A) (human) (UniProt P35225); assay: FACS blocking, biotin-IL-13 on IL-13Ra2 HEK293 cells; antibody at 1.33 nM

# binder, attributeMeasured, measValue
data = [
    ("29D9H8 (lead antibody, mouse hybridoma) (antibody, V domains shown, Mouse monoclonal antibody purified from hybridoma supernatant on Protein G) VH: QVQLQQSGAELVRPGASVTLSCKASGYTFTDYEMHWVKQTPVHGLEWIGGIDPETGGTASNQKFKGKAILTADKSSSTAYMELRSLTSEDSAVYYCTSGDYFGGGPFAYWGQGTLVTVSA VL: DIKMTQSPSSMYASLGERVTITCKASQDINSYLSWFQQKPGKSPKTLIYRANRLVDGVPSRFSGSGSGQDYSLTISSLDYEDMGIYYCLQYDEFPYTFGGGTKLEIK", "mean fluorescence intensity", 32.3),
    ("c35E2C3 (mouse-human chimeric IL-13 antibody) (antibody, V domains shown) VH: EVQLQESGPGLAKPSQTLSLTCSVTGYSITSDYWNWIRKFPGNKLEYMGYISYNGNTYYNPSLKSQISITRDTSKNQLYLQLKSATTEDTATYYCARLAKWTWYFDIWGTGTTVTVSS VL: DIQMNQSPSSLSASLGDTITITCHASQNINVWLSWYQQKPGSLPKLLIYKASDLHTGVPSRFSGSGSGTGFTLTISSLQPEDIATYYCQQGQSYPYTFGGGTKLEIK", "mean fluorescence intensity", 29),
]

Now look at this entry.
q: Consider the binder 70F10A10 (lead antibody, mouse hybridoma) (antibody, V domains shown) VH: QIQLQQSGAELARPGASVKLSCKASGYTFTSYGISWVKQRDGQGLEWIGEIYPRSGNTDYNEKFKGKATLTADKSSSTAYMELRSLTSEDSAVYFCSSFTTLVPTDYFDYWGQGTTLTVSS VL: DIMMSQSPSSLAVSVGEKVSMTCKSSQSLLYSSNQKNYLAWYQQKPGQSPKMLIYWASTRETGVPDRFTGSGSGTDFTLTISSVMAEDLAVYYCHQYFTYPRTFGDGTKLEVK and give its measured mean fluorescence intensity.
a: 46
